test system: OVCAR-8 ovarian; assay: NCI-60 one-dose screen, 48 h; conditions: 10 µM unless noted
This is part of a sample that, as a whole, favours compounds with a hit. Of some 83,000 tested, about 20% had one in any assay. Calls of active or inactive are those of the source. Rule for the calls: active = growth percent below 10; inactive = the rest.
// one of YES (active), NO (inactive), no free text

Worked examples, 6 compounds total:
>>> print(df.to_string())
                                   compound  answerlabel
0                        Nc1nnc2cc(F)ccc2n1           NO
1  COc1cc(-c2ccc(NC(=O)CC(C)=O)c(OC)c2)ccc1NC(=O)CC(C)=O           NO
2                  CCOC(=O)c1ccc(NC(C)=O)o1           NO
3  CN(C)CCOC(=O)Nc1ccc(Cc2ccc(NC(=O)OCCN(C)C)cc2)cc1           NO
4  Cc1ccc(S(=O)(=O)NC(=O)NCCSSCCNC(=O)NS(=O)(=O)c2ccc(C)cc2)cc1           NO
5             CC(CCC#N)(CCC#N)C(=O)c1ccccc1           NO

Ask: Recorded test outcome, item "CC(=O)N(C)N=Nc1ccc(C)cc1"
Result: NO

###

system: NCI-H522 lung; assay: NCI-60 one-dose screen, 48 h (100 = growth as untreated, 0 = no growth, -100 = all killed); conditions: 10 µM unless noted
This is part of a sample that, as a whole, favours compounds with a hit. Of some 83,000 tested, about 20% had one in any assay.
reportedMetric: growth (%)
Reply with just the number (in %).

>>> df
                                   compound  unitdescriptor  observed
0  O=C(O)C1CCCN1C(=O)OCc1ccccc1 (configuration not stated)               %      85.6
1  CC(C)=CCC[C@@H](C)[C@H]1CC[C@@]2(C)C3=C(CC[C@]12C)[C@@]1(C)CC[C@H](O)C(C)(C)[C@@H]1CC3               %        95
2                 CSc1nc2[nH]ncc2c(=O)[nH]1               %      99.9
3       O=C(c1ccccc1)c1ccc(-c2ccc(O)cc2)cc1               %      25.8
4        Cc1cc(Cc2ccccc2)c(O)c(Cc2ccccc2)c1               %        78

Now let's try a different one.
// recorded growth for "S=C(NCc1ccccc1)N1CCC(CCCC2CCN(C(=S)NCc3ccccc3)CC2)CC1" : 80.2

###

test system: M14 melanoma; assay: NCI-60 one-dose screen, 48 h (100 = growth as untreated, 0 = no growth, -100 = all killed); details: 10 µM unless noted
The panel holds about 83,000 compounds, 20% with a hit somewhere; the sample as a whole holds those more often.
reportedMetric: growth (%)
Numbers only here, please. The scale is %.

Use these answered entries as a reference point.
>>> df
                                   compound  reportedmetric  observed
0  CCN1CCCC(N2c3ccccc3Sc3ccccc32)C1 (stereo unspecified)          growth      99.8
1                Cc1ccc(NC(=S)N2CCOCC2)cc1C          growth      93.1
2  CC(CC(CCC(=O)O)(c1ccccc1)c1ccccc1)N(C)C (stereo unspecified)          growth        95

Documented growth of "CN(C)c1ccc2nc3ccc(=[N+](C)C)cc-3oc2c1" : 3.87

Reported growth ( "CCOc1ccccc1NC(=O)CCl" ) = 79.1

###

system: SW-620 colon; test: NCI-60 one-dose screen, 48 h (100 = growth as untreated, 0 = no growth, -100 = all killed); conditions: 10 µM unless noted
Compounds without any hit were thinned out: in the full panel of roughly 83,000, 20% have a hit.
reportedMetric: growth (%)
Field format: number, assumed %, no unit text.

Worked examples, 4 compounds total:
>>> print(df.to_string())
                       compound  observed
0      CC(=O)CSc1ncnc2nc[nH]c12        96
1         COc1cc(N)c2ncccc2c1Cl       109
2  Cn1c2ccccc2c2nnc(NCCCCO)nc21        93
3    CC(=O)N(C(C)=O)c1ccc(C)cc1       102

Continue with the next compound.
growth recorded for this compound, "Cc1cc2c(C(C)C)c(O)c(O)c(C=Nc3ccccc3[N+](=O)[O-])c2c(O)c1-c1c(C)cc2c(C(C)C)c(O)c(O)c(C=Nc3ccccc3[N+](=O)[O-])c2c1O" , is 96.3

###

system: NCI-H226 lung; assay: NCI-60 one-dose screen, 48 h (100 = growth as untreated, 0 = no growth, -100 = all killed); conditions: 10 µM unless noted
Compounds without any hit were thinned out: in the full panel of roughly 83,000, 20% have a hit.
reportedMetric: growth (%)
I only need the number, in %, no unit after it.

>>> df
                                   compound  experimentalsystem  reportedmetric  observed
0                  Nc1cc(F)ccc1[N+](=O)[O-]       NCI-H226 lung          growth      95.9
1  BrCc1cccc(C[P+](c2ccccc2)(c2ccccc2)c2ccccc2)c1       NCI-H226 lung          growth      73.7
2              Cn1c2ccccc2c2nnc(NCCCCO)nc21       NCI-H226 lung          growth      83.9
3   Cc1ccc2nc(-c3ccc(N=Cc4ccccc4O)cc3)sc2c1       NCI-H226 lung          growth      70.7
4                    Cc1cc2nc(C)c(C)nc2cc1C       NCI-H226 lung          growth        84
5  CC(=O)[C@@]1(O)CC[C@H]2[C@@H]3CC[C@@H]4CC(=O)CC[C@]4(C)[C@H]3[C@@H](O)C[C@@]21C       NCI-H226 lung          growth      95.9

# compound Nc1ccn(C2CC(N)C(CO)O2)c(=O)n1 (configuration not stated) ; its growth = 85.1

// "CCOC(=O)c1c[nH][nH]c1=O" : growth value = 101

The compound identified as "CN1C(=O)NC(c2ccc(Cl)cc2)(c2ccc(Cl)cc2)C1=O" registered its growth at 94.1

Notebook: "C/C(O)=C(/C=N/C(=S)Nc1ccccc1)C(=O)Nc1ccccc1C" , growth read as 95.8

The measured growth associated with "CCOc1ccncc1[N+](=O)[O-]" reads 102

// field: growth; key: CC1(C)C2CCC1(C)C1(C2)OCCS1 (configuration not stated) ; value = 92.7

###

tested on: T-47D breast; assay: NCI-60 one-dose screen, 48 h; details: 10 µM unless noted
This is part of a sample that, as a whole, favours compounds with a hit. Of some 83,000 tested, about 20% had one in any assay. Activity calls are given as the source filed them. The calls were made as follows: active = growth percent below 10; inactive = the rest.
Mark one answer only. Choices: label 1 = active, label 0 = inactive

Examples with answers:
                                   compound  answerlabel
0                             CC(=O)c1cccs1      label 0
1                             Nc1ccc(F)cc1F      label 0
2  COc1c(CNC(=O)CCl)cc2[nH]c(C)cc2c1CNC(=O)CCl      label 0
3                  Cc1[nH]c(=S)[nH]c(=O)c1C      label 0
4                            CN(C)Cc1ccccn1      label 0

Ask: What did this assay record as the result for CN1CCCN(C(c2ccccc2)c2ccc(Br)cc2)CC1 (configuration not stated) ?
Result: label 0

Ask: Recorded test call requested for "S=c1nc2[nH]c3ccccc3c2n[nH]1"
Result: label 0

Ask: Which outcome did this test record for the compound "CCOC(=O)CSCCC#N" ?
Result: label 0

###

tested on: RXF 393 renal; test: NCI-60 one-dose screen, 48 h (100 = growth as untreated, 0 = no growth, -100 = all killed); conditions: 10 µM unless noted
Compounds without any hit were thinned out: in the full panel of roughly 83,000, 20% have a hit.
This listing pairs compounds with measured growth.
Form entry: value (%) — number only.

# example entries with known answers
>>> df
                                   compound  reportedmetric  observed
0                          CNc1ccccc1C(N)=O          growth      98.1
1  O=S(Cc1ccccc1)/C(=C/NC(=S)Nc1cc(Cl)ccc1Cl)c1ccccc1 (stereo not drawn)          growth       103
2           COc1ccc(Nc2cc(Cl)ccc2C(=O)O)cn1          growth       126
3  CC(=O)Nc1ccc(C(=O)c2ccc(S(=O)(=O)Nc3ccccc3)cc2)cc1          growth       100
4          COC(=O)c1ccc([N+](=O)[O-])c(C)c1          growth       105

So, "Cc1ccc(C)c(CN(C)C)c1O" ? Its growth was 107

Quick note, growth for "C=CCS(C)(=O)=O" landed at 98

Entry "Cc1cc(Cl)cc(Cc2cc(Cl)cc(C)c2O)c1O" , growth reported as 56.9

The measured growth associated with "O=C1Nc2ccccc2/C1=C\c1ccccc1O" reads 106

The compound listed as "Cc1ccc2[nH]c3ccccc3c2c1" has a reported growth of 112
